Hey, just so you know, these numbers are from the supplement of paper PMC6555819.

- System: PPARg:RXRa 270nM:90nM, anti-RXR (NR concentration 270 nM, RXRa partner concentration 90 nM)
- ASSAY_PROCEDURE: PBM binding z-score (relative to random genomic background probes); higher = stronger binding; sequences stand for … in GC…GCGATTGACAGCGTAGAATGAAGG
Recorded PBM binding z-score, one value per entry.
Just the number, please.

// known answers, use as guide
[
  {
    "SEQ": "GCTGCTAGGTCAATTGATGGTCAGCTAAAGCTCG",
    "MEASUREMENT_NAME": "PBM binding z-score",
    "NUMERIC_VALUE": 1.87
  },
  {
    "SEQ": "ACTTGCAGGCCAAGGGTCACTCAAGATTAGTCCG",
    "MEASUREMENT_NAME": "PBM binding z-score",
    "NUMERIC_VALUE": 7.35
  },
  {
    "SEQ": "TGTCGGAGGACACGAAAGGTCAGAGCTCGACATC",
    "MEASUREMENT_NAME": "PBM binding z-score",
    "NUMERIC_VALUE": 2.54
  }
]

Q) Item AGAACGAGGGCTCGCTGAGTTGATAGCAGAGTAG : provide PBM binding z-score
A) -0.824

Q) Item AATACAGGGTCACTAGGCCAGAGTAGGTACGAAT : provide PBM binding z-score
A) 6.72

Q) Item CATACAGGGTCAGCTAGGCCAGAGTCGGGACGGC : provide PBM binding z-score
A) 3.03

Q) Item ACTAGCAGGCCAAGTTTTGGTCACTCAAACAAAG : provide PBM binding z-score
A) -0.261

Q) Item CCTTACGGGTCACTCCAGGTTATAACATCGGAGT : provide PBM binding z-score
A) 3.91

Q) Item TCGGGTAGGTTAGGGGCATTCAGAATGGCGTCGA : provide PBM binding z-score
A) 1.7

Q) Item CCTAGCAGGTCAATCTGGGTCACTCAAGGCTTGA : provide PBM binding z-score
A) 5.3

Q) Item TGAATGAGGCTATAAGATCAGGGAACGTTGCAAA : provide PBM binding z-score
A) 0.203

Q) Item AGTGAAAGTTCACTAGGTAACGTAAGATTCAGCT : provide PBM binding z-score
A) 6.07

Q) Item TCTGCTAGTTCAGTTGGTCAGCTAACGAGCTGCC : provide PBM binding z-score
A) 0.545

Q) Item TAGAGTAGGTTAGGGGCATTCAGAATGGCGTCGA : provide PBM binding z-score
A) 3.01

Q) Item CCTCGGCGGACAGAAGGTCAGAGCTGTCCGCTTT : provide PBM binding z-score
A) 0.898

Q) Item CTACCAAGGTGAACAAGATCGTTGATTACTATTC : provide PBM binding z-score
A) 0.973

Q) Item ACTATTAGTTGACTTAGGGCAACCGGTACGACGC : provide PBM binding z-score
A) 0.108

Q) Item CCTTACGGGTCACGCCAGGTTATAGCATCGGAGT : provide PBM binding z-score
A) 6.08

Q) Item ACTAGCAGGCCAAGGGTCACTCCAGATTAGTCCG : provide PBM binding z-score
A) 7.08

Q) Item CAGCCTAGGTCAGGGCCTGTATAGGAGGAACGTT : provide PBM binding z-score
A) 0.931

Q) Item CCAACTAGGTCACGAAAGGTCAAAGTCGAATGAC : provide PBM binding z-score
A) 8.01

Q) Item GCTCAGAGGACAAGGTCAGAGCTTTGTCCGTAGA : provide PBM binding z-score
A) 0.936

Q) Item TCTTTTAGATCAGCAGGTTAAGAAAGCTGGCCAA : provide PBM binding z-score
A) 1.65

Q) Item CAAACTATGTCACAGAGGTCAAAGTCCGTGCGTA : provide PBM binding z-score
A) 6.01

Q) Item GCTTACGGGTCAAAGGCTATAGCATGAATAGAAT : provide PBM binding z-score
A) 6.86
